test system: Fibroblast; assay: Incucyte cell viability with human fibroblast; type: toxicity, cell-based; conditions: 24 h, 10 µM, compound concentration 10 uM, replicate number 1, timepoint 24 hours; further: filed as whole numbers so only -1 and 0 and 1 occur
measured attribute: Growth Rate

Inquiry: Any idea what Growth Rate came out for `Cc1ccc2nc(NCCN)c3ncc(C)n3c2c1.O=C(O)C(F)(F)F.O=C(O)C(F)(F)F` on Fibroblast?
Reply text: 0

Inquiry: Next compound up: `CCCCN(CCCC)C(=O)CN1C[C@H](c2cc(OC)c3c(c2)OCO3)[C@@H](C(=O)O)[C@@H]1CC(C)(C)CCC.Cc1ccc(S(=O)(=O)O)cc1`
Reply text: 0

Inquiry: Next compound up: Cn1nc(C(=O)NCc2ccc(C(=O)O)cc2)cc1-c1ccc2[nH]ccc2c1 [BI 4395]
Reply text: 1

Inquiry: Next compound up: CC(=O)c1c(NS(C)(=O)=O)c2cc(-c3ccc(Cl)cc3)c(-c3ccc(Cl)cc3Cl)nc2n(C)c1=O [MRL-CB1-NC]
Reply text: 0

Inquiry: Next compound up: CO[C@@H](C)c1c(Nc2ccc([C@@H](N(C)C(=O)C3CCS(=O)(=O)CC3)C(F)(F)F)cc2)cnc2cc(Cl)nn12 [NVS-MALT1-C]
Reply text: 1

Inquiry: Next compound up: CC(C)C[C@H](CO)Nc1nc(S[C@@H](C)c2ccccc2)nc2nc(N)sc12 [AZD-8797]
Reply text: 0

Inquiry: Next compound up: C=CC(=O)N1CCC([C@@H]2CCNc3c(C(N)=O)c(-c4ccc(Oc5ccccc5)cc4)nn32)CC1 [ZANUBRUTINIB]
Reply text: 0

Inquiry: Next compound up: CC[C@H](CO)Nc1nc(NCc2ccccc2)c2ncn(C(C)C)c2n1 [SELICICLIB]
Reply text: 0

Inquiry: Next compound up: `Nc1cc(F)ccc1NC(=O)/C=C/c1cnn(C/C=C/c2ccccc2)c1`
Reply text: 1

Inquiry: Next compound up: `O=C1N/C(=N/c2ccccc2F)S/C1=C\c1ccc(C(=O)O)cc1`
Reply text: 0

Inquiry: Next compound up: `O=C(Nc1cccnn1)N1CCC(=Cc2cccc(Oc3ccc(C(F)(F)F)cn3)c2)CC1`
Reply text: 0

Inquiry: Next compound up: CC(C)(C(=O)O)c1ccc(C(O)CCCN2CCC(C(O)(c3ccccc3)c3ccccc3)CC2)cc1.Cl (centres undefined) [FEXOFENADINE HYDROCHLORIDE]
Reply text: 0

Inquiry: Next compound up: `COC1CCN(c2cccc(-c3cc(NC(C)=O)nc(-n4nc(C)cc4C)n3)n2)CC1`
Reply text: 0

Inquiry: Next compound up: CCCn1c(=O)c2[nH]c(-c3cnn(Cc4cccc(C(F)(F)F)c4)c3)nc2n(CC)c1=O [GS 6201]
Reply text: 1

Inquiry: Next compound up: CCOC(=O)c1c(C)[nH]c2ccc3c(c12)CN1CCc2cc(OC)ccc2C1O3 (centres undefined)
Reply text: 0

Inquiry: Next compound up: `Cl.O=C(O)Cc1cccc(OCCCN(Cc2cccc(C(F)(F)F)c2Cl)CC(c2ccccc2)c2ccccc2)c1`
Reply text: 0

Inquiry: Next compound up: `CCn1c(=O)c(-c2ccc(-c3cncs3)cc2Cl)cc2cnc(Nc3ccc(N4CCN(C)CC4)cc3)nc21`
Reply text: 0

Inquiry: Next compound up: `CCc1cccc(CC)c1NC(=O)c1nn(C)c2c1CCc1cnc(Nc3ccc(C(=O)NC4CCN(C)CC4)cc3OC(F)(F)F)nc1-2`
Reply text: 0

Inquiry: Next compound up: Cn1nc(C(F)(F)F)cc1-c1cnc(N2CCc3cc(S(=O)(=O)Nc4c(F)cc(Cl)cc4F)cc(N4CCCC4=O)c32)nc1 [TP-020]
Reply text: 0

Inquiry: Next compound up: CCC(=N\O)/C(C)=C/c1ccc(F)c(C)c1 [A-226]
Reply text: 1

Inquiry: Next compound up: `CCCc1c(OCCCOc2ccc(OCC(=O)O)cc2)ccc(C(C)=O)c1O`
Reply text: 1

Inquiry: Next compound up: CN1CCC(=C2c3ccccc3CC(=O)c3sccc32)CC1.O=C(O)/C=C/C(=O)O [KETOTIFEN FUMARATE]
Reply text: 0

Inquiry: Next compound up: CC(C)(Sc1ccc(CCN(CCCCC2CCCCC2)C(=O)NC2CCCCC2)cc1)C(=O)O [GW7647]
Reply text: 0

Inquiry: Next compound up: CN1CCN(c2cnc3c(C4CCN(C(=O)c5ccc(OC(F)(F)F)cc5N)CC4)ncnc3c2)CC1 [BAY-885]
Reply text: 0

Inquiry: Next compound up: `CC1(C)C(=O)C(C)(C)c2cc(C(=O)Nc3ccc(C(=O)O)cc3)ccc21`
Reply text: 0

Inquiry: Next compound up: COc1cccc2cc(-c3nc([C@H]4CC[C@H](C(=O)O)CC4)n4ncnc(N)c34)[nH]c12 [OSI-027]
Reply text: 0

Inquiry: Next compound up: `O=C(Nc1ccc(Cl)cc1)Nc1cccc(-c2cccc(N3CCCC3)n2)c1`
Reply text: 0

Inquiry: Next compound up: O=C(Nc1ccc(-n2nc(-c3cccnc3)cc2C(F)(F)F)cn1)c1ccc(-c2ccccc2)c(F)c1 [BI 2049]
Reply text: 0

Inquiry: Next compound up: C#C[C@]1(O)CC[C@H]2[C@@H]3CCc4cc(O)ccc4[C@H]3CC[C@@]21C [ETHINYL ESTRADIOL]
Reply text: 0

Inquiry: Next compound up: `FC(F)(F)c1cccc(-c2noc(-c3cc(-c4ccccc4)c(C(F)(F)F)s3)n2)c1`
Reply text: 1

Inquiry: Next compound up: `COc1cc(-c2cn(C)c(=O)c3cnccc23)c(OC)cc1CN(C)C`
Reply text: 0

Inquiry: Next compound up: Cc1ccc2nc(CNCCCOc3ccccc3)cc(O)c2c1 [UCSF924]
Reply text: 0

Inquiry: Next compound up: CN(C)[C@H]1CCN(c2cc(-c3ccccc3)nc3ccnn23)C1 [(S)-ZINC-3573]
Reply text: 1

Inquiry: Next compound up: `Cc1nc(-c2ccc(C(F)(F)F)cc2)sc1COc1ccc([C@H](CC(=O)O)c2ccon2)cc1`
Reply text: 0

----------
tested on: HEK-293T; experiment: Multiplex assay against HEK293T; format: toxicity, cell-based; details: human, 12 h, 10 µM, compound concentration 10 uM, replicate 1
For each of the compounds below, state its Population Mitotic Cells (%).
Use % as the unit, but write only the number.

Inquiry: Give the measured Population Mitotic Cells (%) of C=CCn1c(=O)c2cnc(Nc3ccc(N4CCN(C)CC4)cc3)nc2n1-c1cccc(C(C)(C)O)n1 [ADAVOSERTIB] .
Reply text: 87

Inquiry: Next compound up: `COC(=N)c1nc2ccc3ncnc(Nc4ccc(OC)cc4F)c3c2s1`
Reply text: 80

Inquiry: Next compound up: `CCOc1cc(C(=O)N2CCC(N3CCN(C)CC3)CC2)ccc1Nc1ncc2c(n1)N(C1CCCC1)c1ccccc1C(=O)N2C`
Reply text: 16

Inquiry: Next compound up: O=C(Nc1ccc(-n2nc(-c3cccnc3)cc2C(F)(F)F)cn1)c1ccc(-c2ccccc2)c(F)c1 [BI 2049]
Reply text: 36

Inquiry: Next compound up: C=C1/C(=C\C=C2/CCC[C@]3(C)[C@@H]([C@H](C)/C=C/[C@H](C)C(C)C)CC[C@@H]23)C[C@@H](O)C[C@@H]1O [DOXERCALCIFEROL]
Reply text: 49

Inquiry: Next compound up: `O=C(Nc1ccc(-c2ccnc(Nc3ccc(N4CCOCC4)cc3)n2)cc1)[C@@H]1CCCN1`
Reply text: 45

Inquiry: Next compound up: `NC(=O)c1cccc(-c2cc(Nc3ccc(OC(F)(F)F)cc3)ncn2)c1`
Reply text: 81

Inquiry: Next compound up: `Cl.O=c1c2cccn2c2ccccc2n1CCCN1CCC(c2ccc(Cl)cc2)CC1`
Reply text: 13

Inquiry: Next compound up: CCCS(=O)(=O)Nc1ccc(F)c(C(=O)c2c[nH]c3ncc(Cl)cc23)c1F [PLX-4720]
Reply text: 78

Inquiry: Next compound up: `Cc1ccc(C(=O)Nc2cccc(C(F)(F)F)c2)cc1Nc1nc(-c2cccnc2)nc2c1cnn2C`
Reply text: 13

Inquiry: Next compound up: Cc1cn(-c2cc(NC(=O)c3ccc(C)c(Nc4nccc(-c5cccnc5)n4)c3)cc(C(F)(F)F)c2)cn1 [NILOTINIB]
Reply text: 8

Inquiry: Next compound up: O=C(Cc1ccc(-c2ccc(OCCN3CCOCC3)cc2)cn1)NCc1ccccc1 [TIRBANIBULIN]
Reply text: 47

Inquiry: Next compound up: COc1cc2ncnc(Nc3ccc(F)c(Cl)c3)c2cc1NC(=O)/C=C/CN1CCCCC1 [DACOMITINIB ANHYDROUS]
Reply text: 85

Inquiry: Next compound up: CN1C2CCC1CC(OC(c1ccc(F)cc1)c1ccc(F)cc1)C2.Cl (stereo not drawn)
Reply text: 19

Inquiry: Next compound up: `Cc1ccc2nc(NCCN)c3ncc(C)n3c2c1.O=C(O)C(F)(F)F.O=C(O)C(F)(F)F`
Reply text: 75

Inquiry: Next compound up: `CNc1cc(Oc2cc(C(=O)Nc3cc(N4CCN(C)CC4)cc(C(F)(F)F)c3)ccc2C)ncn1`
Reply text: 13

Inquiry: Next compound up: `CNC(=O)c1ccc(Nc2nc(OC3CCCC3)c3c(-c4ccc5nc(C)oc5c4)c[nH]c3n2)c(OC)c1`
Reply text: 73

Inquiry: Next compound up: CN(C)C(=O)C(CCN1CCC(O)(c2ccc(Cl)cc2)CC1)(c1ccccc1)c1ccccc1.Cl [LOPERAMIDE HYDROCHLORIDE]
Reply text: 8

Inquiry: Next compound up: `O=C1N/C(=N/c2ccccc2F)S/C1=C\c1ccc(C(=O)O)cc1`
Reply text: 63

Inquiry: Next compound up: `COc1ccc(S(=O)(=O)N(CCO)c2ccccc2CN(C)C/C=C/c2ccc(Cl)cc2)cc1.O=P(O)(O)O`
Reply text: 85

Inquiry: Next compound up: `CCn1c(=O)c(-c2ccc(-c3cncs3)cc2Cl)cc2cnc(Nc3ccc(N4CCN(C)CC4)cc3)nc21`
Reply text: 47

Inquiry: Next compound up: Cn1nc(C(F)(F)F)cc1-c1cnc(N2CCc3cc(S(=O)(=O)Nc4c(F)cc(Cl)cc4F)cc(N4CCCC4=O)c32)nc1 [TP-020]
Reply text: 82

Inquiry: Next compound up: `CCc1cccc(CC)c1NC(=O)c1nn(C)c2c1CCc1cnc(Nc3ccc(N4CCN(C)CC4)cc3OC)nc1-2`
Reply text: 80

Inquiry: Next compound up: O=C1NC(=O)C(c2cnc3ccccn23)=C1c1cn2c3c(cc(F)cc13)CN(C(=O)N1CCCCC1)CC2 [LY-2090314]
Reply text: 23

Inquiry: Next compound up: `S=C(NCCCc1c[nH]cn1)NCCCN(Cc1ccc(Cl)c(Cl)c1)c1ccc(Br)cn1`
Reply text: 11

Inquiry: Next compound up: `CCCS(=O)(=O)c1nc(NC2CC2)cc(-c2ccc3c(ccn3C3CC(C)(C)NC(C)(C)C3)c2)n1`
Reply text: 34

Inquiry: Next compound up: `O=C(Nc1ccc(Cl)cc1)Nc1cccc(-c2cccc(N3CCCC3)n2)c1`
Reply text: 14

Inquiry: Next compound up: `O=C(Nc1cccnn1)N1CCC(=Cc2cccc(Oc3ccc(C(F)(F)F)cn3)c2)CC1`
Reply text: 69

Inquiry: Next compound up: CCn1cc(-c2ccnc3[nH]c(-c4cccc(CN(C)C)c4)cc23)c(-c2ccc(NC(=O)N(C)C)cc2)n1 [GSK-1070916]
Reply text: 71

Inquiry: Next compound up: `CCN1CCN(Cc2ccc(Nc3ncc(F)c(-c4cc(F)c5nc(C)n(C(C)C)c5c4)n3)nc2)CC1.CS(=O)(=O)O`
Reply text: 25

Inquiry: Next compound up: CCOc1cc2ncc(C#N)c(Nc3ccc(OCc4ccccn4)c(Cl)c3)c2cc1NC(=O)/C=C/CN(C)C [NERATINIB]
Reply text: 56

Inquiry: Next compound up: `CCc1cccc(CC)c1NC(=O)c1nn(C)c2c1CCc1cnc(Nc3ccc(C(=O)NC4CCN(C)CC4)cc3OC(F)(F)F)nc1-2`
Reply text: 19

Inquiry: Next compound up: COc1cccc2cc(-c3nc([C@H]4CC[C@H](C(=O)O)CC4)n4ncnc(N)c34)[nH]c12 [OSI-027]
Reply text: 76
